Consider the following compounds; for each one, report its K.
- Tested on: Escherichia coli
- run.description: Binding affinity to Escherichia coli sliding clamp assessed as association rate constant by ITC analysis
*1 amine or outer side, *2 acyl side, *3 side chain or, on linkers, in order; H or OH if unused. Where a SMILES comes first, the peptide text is derived from it. [ ]: non-standard residue; d: D form. The star is where a group is joined. ACHC(1S,2S) = O=C([C@H]1CCCC[C@@H]1N[*:1])[*:2]; Acryloyl(3-(3-pyridyl),E) = O=C(/C=C/c1cccnc1)*; Gly(N-3-morpholinopropyl) = O=C(O)CNCCCN1CCOCC1; Phe(3,4-Cl2) = N[C@@H](Cc1ccc(Cl)c(Cl)c1)C(=O)O; Oic = O=C(O)[C@@H]1C[C@@H]2CCCC[C@@H]2N1; Cinnamoyl(4-F) = O=C(/C=C/c1ccc(F)cc1)*; X6 = O=C([C@@H]1CC(O)CN1[*:1])[*:2]; NH(4-MeO-phenyl) = COc1ccc(N*)cc1; NMeR = CN[C@@H](CCCNC(=N)N)C(=O)O; tBuAla = CC(C)(C)C[C@H](N)C(=O)O; NMeQ = CN[C@@H](CCC(N)=O)C(=O)O; Cha = N[C@@H](CC1CCCCC1)C(=O)O; NMeD = CN[C@@H](CC(=O)O)C(=O)O; Phe(ol) = N[C@H](CO)Cc1ccccc1; NHPhenethyl = c1ccc(CCN*)cc1; X1 = O=C(/C=C/c1ccccc1)*; CO = O=C([*:1])[*:2]; Sar = CNCC(=O)O

Given the compound CC(C)C[C@H](NC(=O)[C@@H]1CCCN1C(=O)[C@H](CC(C)C)NC(=O)[C@H](CC(=O)O)N(C)C(=O)[C@H](CC1CCCCC1)NC(=O)[C@H](CCC(N)=O)NC(=O)/C=C/c1cccnc1)C(=O)O ({Acryloyl(3-(3-pyridyl),E)}-Q[Cha][NMeD]LPL-OH) , write its reported K.
6.3 10^4/M/s

Given the compound CC(=O)N[C@@H](CCC(N)=O)C(=O)N[C@@H](CC1CCCCC1)C(=O)N[C@@H](CC(=O)O)C(=O)N[C@@H](CC(C)C)C(=O)N[C@H]1CCCC[C@@H]1C(=O)N[C@@H](CC(C)C)C(=O)O (Ac-Q[Cha]DL[ACHC(1S,2S)]L-OH) , write its reported K.
7.4 10^4/M/s

Given the compound COc1ccc(NC(=O)N[C@@H](CCC(N)=O)C(=O)N[C@@H](CC2CCCCC2)C(=O)N[C@@H](CC(=O)O)C(=O)N[C@@H](CC(C)C)C(=O)N[C@@H](Cc2ccccc2)C(=O)O)cc1 ({NH(4-MeO-phenyl)-CO}-Q[Cha]DLF-OH) , write its reported K.
4 10^4/M/s

Given the compound CC(=O)N(C)[C@@H](CCCNC(=N)N)C(=O)N[C@@H](CCC(N)=O)C(=O)N[C@@H](CC1CCCCC1)C(=O)N(C)[C@@H](CC(=O)O)C(=O)N[C@@H](CC(C)C)C(=O)N[C@@H](Cc1ccc(Cl)c(Cl)c1)C(=O)O (Ac-[NMeR]Q[Cha][NMeD]L[Phe(3,4-Cl2)]-OH) , write its reported K.
1.1 10^5/M/s

Given the compound CC(C)C[C@H](NC(=O)[C@H](CC(=O)O)N(C)C(=O)[C@H](CC1CCCCC1)NC(=O)[C@H](CCC(N)=O)NC(=O)/C=C/c1cccnc1)C(=O)N1[C@H](C(=O)N[C@@H](Cc2ccccc2)C(=O)O)C[C@@H]2CCCC[C@@H]21 ({Acryloyl(3-(3-pyridyl),E)}-Q[Cha][NMeD]L[Oic]F-OH) , write its reported K.
4.7 10^4/M/s

Given the compound CC(C)C[C@H](NC(=O)[C@H](CC(=O)O)NC(=O)[C@H](CC1CCCCC1)NC(=O)[C@H](CCC(N)=O)NC(=O)CNCCCN1CCOCC1)C(=O)N[C@@H](Cc1ccccc1)C(=O)O (H-[Gly(N-3-morpholinopropyl)]Q[Cha]DLF-OH) , write its reported K.
1.8 10^4/M/s

Given the compound CC(=O)N[C@@H](CCC(N)=O)C(=O)N[C@@H](CC1CCCCC1)C(=O)N[C@@H](CC(=O)O)C(=O)N[C@@H](CC(C)C)C(=O)NCC(=O)N[C@@H](CC(C)(C)C)C(=O)O (Ac-Q[Cha]DLG[tBuAla]-OH) , write its reported K.
1.1 10^4/M/s

Given the compound CC(=O)N[C@@H](CCC(N)=O)C(=O)N[C@@H](CC1CCCCC1)C(=O)N[C@@H](CC(=O)O)C(=O)N[C@@H](CC(C)C)C(=O)N(C)CC(=O)N[C@@H](CC(C)C)C(=O)O (Ac-Q[Cha]DL[Sar]L-OH) , write its reported K.
4 10^4/M/s

Given the compound CC(=O)N(C)[C@@H](CCC(N)=O)C(=O)N[C@@H](CC1CCCCC1)C(=O)N[C@@H](CC(=O)O)C(=O)N[C@@H](CC(C)C)C(=O)N[C@@H](Cc1ccccc1)C(=O)O (Ac-[NMeQ][Cha]DLF-OH) , write its reported K.
2.1 10^4/M/s

Given the compound CC(=O)N(C)[C@@H](CCCNC(=N)N)C(=O)N[C@@H](CCC(N)=O)C(=O)N[C@@H](CC1CCCCC1)C(=O)N[C@@H](CC(=O)O)C(=O)N[C@@H](CC(C)C)C(=O)N[C@@H](Cc1ccccc1)C(=O)O (Ac-[NMeR]Q[Cha]DLF-OH) , write its reported K.
2.1 10^4/M/s

Given the compound CC(C)C[C@H](NC(=O)[C@H](CC(=O)O)NC(=O)[C@H](CC1CCCCC1)NC(=O)[C@H](CCC(N)=O)NC(=O)/C=C/c1ccc(F)cc1)C(=O)N[C@@H](Cc1ccccc1)C(=O)O ({Cinnamoyl(4-F)}-Q[Cha]DLF-OH) , write its reported K.
4.6 10^4/M/s

Given the compound CC(=O)N[C@@H](CCC(N)=O)C(=O)N[C@@H](CC1CCCCC1)C(=O)N[C@@H](CC(=O)O)C(=O)N[C@@H](CC(C)C)C(=O)N1CCC[C@H]1C(=O)N[C@@H](CC(C)C)C(=O)O (Ac-Q[Cha]DLPL-OH) , write its reported K.
5.7 10^4/M/s

Given the compound CC(=O)N[C@@H](CCCNC(=N)N)C(=O)N[C@@H](CCC(N)=O)C(=O)N[C@@H](CC1CCCCC1)C(=O)N[C@@H](CC(=O)O)C(=O)N[C@@H](CC(C)C)C(=O)N[C@@H](Cc1ccccc1)C(=O)O (Ac-RQ[Cha]DLF-OH) , write its reported K.
3.7 10^4/M/s

Given the compound CC(=O)N[C@@H](CCC(N)=O)C(=O)N[C@@H](CC1CCCCC1)C(=O)N[C@@H](CC(=O)O)C(=O)N[C@@H](CC(C)C)C(=O)NCCc1ccccc1 (Ac-Q[Cha]DL-NHPhenethyl) , write its reported K.
1.9 10^4/M/s

Given the compound CC(C)C[C@H](NC(=O)[C@@H]1CCCN1C(=O)[C@H](CC(C)C)NC(=O)[C@H](CC(=O)O)NC(=O)[C@H](CC1CCCCC1)NC(=O)[C@H](CCC(N)=O)NC(=O)/C=C/c1ccccc1)C(=O)O (X1-Q[Cha]DLPL-OH) , write its reported K.
6 10^4/M/s

Given the compound CC(=O)N[C@@H](CCC(N)=O)C(=O)N[C@@H](CC1CCCCC1)C(=O)N[C@@H](CC(=O)O)C(=O)N[C@@H](CC(C)C)C(=O)N1CC(O)C[C@H]1C(=O)N[C@@H](CC(C)C)C(=O)O (stereo partly drawn) (Ac-Q[Cha]DL[X6]L-OH) , write its reported K.
4.4 10^4/M/s

Given the compound CC(=O)N[C@@H](CCC(N)=O)C(=O)N[C@@H](CC1CCCCC1)C(=O)N[C@@H](CC(=O)O)C(=O)N[C@@H](CC(C)C)C(=O)N[C@H](CO)Cc1ccccc1 (Ac-Q[Cha]DL[Phe(ol)]) , write its reported K.
2.6 10^4/M/s

====

- Test system: Escherichia coli
- run.description: Binding affinity to Escherichia coli sliding clamp assessed as association rate constant by ITC analysis
Where a SMILES comes first, the peptide text is derived from it. [ ]: non-standard residue; d: D form. The star is where a group is joined. Phe(3,4-Cl2) = N[C@@H](Cc1ccc(Cl)c(Cl)c1)C(=O)O; Cha = N[C@@H](CC1CCCCC1)C(=O)O; NMeD = CN[C@@H](CC(=O)O)C(=O)O; X1 = O=C(/C=C/c1ccccc1)*
Consider the following molecules; for each one, report its K.

Given the molecule CC(=O)N[C@@H](CCC(N)=O)C(=O)N[C@@H](CC1CCCCC1)C(=O)N(C)[C@@H](CC(=O)O)C(=O)N[C@@H](CC(C)C)C(=O)N1CCC[C@H]1C(=O)N[C@@H](Cc1ccc(Cl)c(Cl)c1)C(=O)O (Ac-Q[Cha][NMeD]LP[Phe(3,4-Cl2)]-OH) , write its reported K.
3.8 10^4/M/s

Given the molecule CC(C)C[C@H](NC(=O)[C@H](CC(=O)O)NC(=O)[C@H](CC1CCCCC1)NC(=O)[C@H](CCC(N)=O)NC(=O)/C=C/c1ccccc1)C(=O)N[C@@H](Cc1ccccc1)C(=O)O (X1-Q[Cha]DLF-OH) , write its reported K.
4.6 10^4/M/s
